Reference for the values: paper PMC7731220

Target: Aβ40 (Homo sapiens, UniProt P05067)
Sequence (P05067 672-711 limits assumed): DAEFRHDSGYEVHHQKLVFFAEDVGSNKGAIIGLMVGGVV
Assay: Inhibition of Aβ40 self-aggregation (thioflavin T fluorescence, 2% HFIP)
Overview of reported log10(IC50) across a group of compounds:
Reported endpoint: log10(IC50) (log10 of the value in µM)

{"Compound": "COc1ccc2[nH]cc(C=NNc3cccc(Cl)c3)c2c1 [Compound 31]", "log10(IC50)": 0.96}
{"Compound": "CN1C(=O)C(=NNc2ccc(OCc3ccccc3)cc2)c2ccccc21 [Compound 9]", "log10(IC50)": -0.02}
{"Compound": "CC(C)c1ccc(NN=C2C(=O)N(Cc3ccccc3)c3ccc(O)cc32)cc1 [Compound 19]", "log10(IC50)": 0.20}
{"Compound": "Clc1cccc(N/N=C/c2c[nH]c3ccccc23)c1 [Compound 30]", "log10(IC50)": 1.11}
{"Compound": "COc1ccc2[nH]cc(C=NNc3ccnc4cc(Cl)ccc34)c2c1 [Compound 36]", "log10(IC50)": 1.11}
{"Compound": "O=C1Nc2ccccc2C1=NNc1ccc2ccccc2c1 [Compound 24]", "log10(IC50)": 1.00}
{"Compound": "COc1ccc2c(c1)C(=O)C(=O)N2CCc1ccccc1 [Compound 11]", "log10(IC50)": 1.18}
{"Compound": "O=C1Nc2ccccc2C1=NNc1ccccc1 [Compound 5, isatin 3-phenylhydrazone]", "log10(IC50)": 1.34}
{"Compound": "Clc1ccc(NN=Cc2c[nH]c3ccccc23)cc1 [Compound 32]", "log10(IC50)": 0.92}
{"Compound": "COc1ccc2c(c1)C(=NNc1ccc(C(C)C)cc1)C(=O)N2CCN(C)C [Compound 18]", "log10(IC50)": 0.11}
{"Compound": "COc1ccc2[nH]cc(C=NNc3ccc4ccccc4n3)c2c1 [Compound 35]", "log10(IC50)": 1.08}
{"Compound": "COc1ccc2[nH]cc(/C=N/Nc3ccc(Cl)cc3)c2c1 [Compound 33]", "log10(IC50)": 1.34}
{"Compound": "O=C1Nc2ccccc2C1=NNc1cccc2ccccc12 [Compound 23]", "log10(IC50)": 0.68}
{"Compound": "Clc1c(C=NNc2ccccc2)[nH]c2ccc(Br)cc12 [Compound 40]", "log10(IC50)": 1.40}
{"Compound": "CC(C)c1ccc(NN=Cc2c[nH]c3ccccc23)cc1 [Compound 28]", "log10(IC50)": 1.26}
{"Compound": "CN1C(=O)C(=NNc2cccc(OCc3ccccc3)c2)c2ccccc21 [Compound 7]", "log10(IC50)": 0.30}
{"Compound": "COc1ccc2c(c1)C(=O)C(=O)N2CCCc1ccccc1 [Compound 12]", "log10(IC50)": 1.28}

* * *

Target: tau protein (Homo sapiens)
Construct: inclusions bodies (IBs) formed by tau full-length protein in bacteria; expressed in transfected cells; host or cells: Escherichia coli BL21 (DE3), plasmids pTARA and pRKT42
Sequence (P10636 other isoform, or with tags, fused parts or gaps): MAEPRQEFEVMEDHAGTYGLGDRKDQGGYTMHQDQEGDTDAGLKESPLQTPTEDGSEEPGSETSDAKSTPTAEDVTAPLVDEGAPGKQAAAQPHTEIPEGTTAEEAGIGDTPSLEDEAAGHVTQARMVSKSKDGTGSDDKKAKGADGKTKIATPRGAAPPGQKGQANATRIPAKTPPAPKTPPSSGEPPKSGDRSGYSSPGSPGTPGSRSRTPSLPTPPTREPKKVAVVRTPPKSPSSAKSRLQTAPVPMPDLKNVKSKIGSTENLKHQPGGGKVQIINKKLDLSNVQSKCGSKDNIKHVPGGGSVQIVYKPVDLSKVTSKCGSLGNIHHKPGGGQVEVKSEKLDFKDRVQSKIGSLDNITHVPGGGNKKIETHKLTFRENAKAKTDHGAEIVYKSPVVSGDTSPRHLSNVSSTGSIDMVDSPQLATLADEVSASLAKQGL
Assay: Tau aggregation inhibition assay in bacterial cells (thioflavin S fluorescence)
Format: cell-based, Escherichia coli BL21 (DE3)
Conditions: cell-based assay, 10 μM
Text: The deposition of aggregates of hyperphosphorylated tau protein constitutes the intracellular neurofibrillary tangles, a major histological evidence of AD. […] ThS fluorescence and absorbance were tracked using a DTX 800 plate reader Multimode Detector equipped with a Multimode Analysis Software (Beckman-Coulter, Indianapolis, IN, USA). […] 535/25 nm filters were also used for the absorbance determination. […]
Give Satisfied when the value for inhibition at 10 µM is at least 20%. Give Not satisfied when it is less.

{"Mol": "CN1C(=O)C(=NNc2cccc(OCc3ccccc3)c2)c2ccccc21", "Cat": "Not satisfied"}
{"Mol": "O=C1Nc2ccccc2C1=NNc1cccc(OCc2ccccc2)c1", "Cat": "Not satisfied"}
{"Mol": "O=C1Nc2ccc([N+](=O)[O-])cc2/C1=N/Nc1ccccc1", "Cat": "Not satisfied"}
{"Mol": "COc1ccc2c(c1)/C(=N/Nc1ccc(OCc3ccccc3)cc1)C(=O)N2", "Cat": "Not satisfied"}
{"Mol": "O=C1Nc2ccccc2C1=NN=C1C(=O)Nc2ccccc21", "Cat": "Not satisfied"}
{"Mol": "O=C1Nc2ccccc2C1=NNc1ccc(OCc2ccccc2)cc1", "Cat": "Satisfied"}
